# method-summary: chemical genetic growth profiling, strain panel (AID 1159580);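 also: tested at 20 µM; growth read once vehicle control cultures reached saturation at 30 °C; 1 = growth at the plate median or of vehicle wells; lower values mean less growth of the strain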
# condition: S. cerevisiae deletion strains, growth OD, locus YJL168C, strain set2, active compounds read low
Screen size: about 5,500 compounds; about 2,000 (36%) were called active. Inconclusive results (about 18%) are left out. Some of the results follow.
Entries and their normalized growth
quantity: normalized growth

compound	quantity	numeric-result
CC(=O)OC1CCC2(O)CC1(C)CCC1C2CC1(C)C (stereo not given)	normalized growth	0.991
CC(=O)O[C@@H]1C2CC[C@@H]3C1(C[C@@H](O)[C@@]1(O)[C@@H](C[C@H](O)C1(C)C)[C@]3(C)O)C[C@@]2(C)O (stereo not given in full)	normalized growth	0.995
Cc1c(NC(C)C)c(=O)n(-c2ccccc2)n1C	normalized growth	0.98
CC(=O)Oc1c(C)c(C)c2c(c1C)CCC(C)(CCCC(C)CCCC(C)CCCC(C)C)O2 (stereo not given)	normalized growth	1
O[C@H]1[C@H](O)[C@@H](O)C2OC[C@H]1O2	normalized growth	0.982
O=C(Nc1ccc([N+](=O)[O-])cc1Cl)c1cc(Cl)ccc1O	normalized growth	0.996
CCCCN(CC)c1c([N+](=O)[O-])cc(C(F)(F)F)cc1[N+](=O)[O-]	normalized growth	1.01
CCCN(CCC)c1c([N+](=O)[O-])cc(C(F)(F)F)cc1[N+](=O)[O-]	normalized growth	1.01
O=C(N[C@@H](CO)[C@H](O)c1ccc([N+](=O)[O-])cc1)C(Cl)Cl	normalized growth	1.01
COc1cc(O)c2c(c1)C(=O)c1cc(C)cc(O)c1C2=O	normalized growth	1

###

# method-summary: chemical genetic growth profiling, strain panel (AID 1159580);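 also: tested at 20 µM; growth read once vehicle control cultures reached saturation at 30 °C; 1 = growth at the plate median or of vehicle wells; lower values mean less growth of the strain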
# condition: S. cerevisiae deletion strains, growth OD, locus YEL003W, strain gim4, active compounds read low
The whole screen tested about 5,500 compounds, of which about 2,000 (36%) were called active. Another 18% or so got no clear call; they are omitted. Some of the results follow.
hey, just use condition met if measured normalized growth is less than 0.9, otherwise condition not met

compound	assigned-category
Cc1cc(O)c2c(c1)C(=O)c1cccc(O)c1C2=O	condition not met
CNC(C)[C@@H]1CC[C@@H](N)[C@@H](OC2[C@@H](N)C[C@@H](N)[C@H](OC3OC[C@](C)(O)[C@H](NC)[C@H]3O)[C@H]2O)O1 (stereo not given in full)	condition not met
O=C1C=CC(=O)c2c(O)cccc21	condition not met
O=C1c2cccc(O)c2C(=O)c2c(O)cccc21	condition met

###

Each entry below carries its recorded normalized growth.
# method-summary: chemical genetic growth profiling, strain panel (AID 1159580);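 also: tested at 20 µM; growth read once vehicle control cultures reached saturation at 30 °C; 1 = growth at the plate median or of vehicle wells; lower values mean less growth of the strain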
# condition: S. cerevisiae deletion strains, growth OD, locus YDR159W, strain sac3, active compounds read low
Screen size: about 5,500 compounds; about 2,000 (36%) were called active. Not shown: some 18% with an inconclusive outcome. Some of the results follow.

compound	normalized growth
Cn1c(=O)c2c(ncn2CCO)n(C)c1=O	1.02
COc1ccc(NS(=O)(=O)c2ccc(N)cc2)nn1	0.907
O=c1c(O)c(-c2ccccc2)oc2ccccc12	0.929
Cn1c(=O)[nH]c2nc[nH]c2c1=O	1.01
O=C(O)CC[N+](=O)[O-]	1.02
CC(=O)NS(=O)(=O)c1ccc(N)cc1	1.03
CCCCCC/C=C\CCCCCCCc1cccc(O)c1C(=O)O	0.974
C[N+]12CCC(CC1)C(OC(=O)C(O)(c1ccccc1)c1ccccc1)C2 (stereo unspecified)	1.01
O=c1c(O)c(-c2ccccc2)oc2ccc3occc3c12	0.742
Cn1c(=O)c2c(ncn2C)n(C)c1=O	0.961
CC(=O)CCCCn1c(=O)c2c(ncn2C)n(C)c1=O	1.03
